Please respond with reported reverse-splicing fitness for every item in the list.
B1: Azoarcus group I ribozyme (parent)
chain: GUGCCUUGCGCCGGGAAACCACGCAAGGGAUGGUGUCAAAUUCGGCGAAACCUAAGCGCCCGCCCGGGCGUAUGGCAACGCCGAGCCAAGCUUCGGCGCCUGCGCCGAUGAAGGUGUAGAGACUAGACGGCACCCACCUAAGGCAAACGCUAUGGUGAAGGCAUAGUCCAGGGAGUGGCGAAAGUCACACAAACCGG

# Variants of: B1
# assay procedure: reverse-splicing fitness (ratio to wild type); higher = more active; in vitro selection; Mg2+ level not given
Answers are plain numbers.

Please review the entries below; each comes with its answer.
| mutation descriptor | reverse-splicing fitness |
| --- | --- |
| C82G A120C A145U C169G U176G | 0.00368 |
| A111G A120C A145U C150A C169A U176C | 0.00676 |
| C82A A111G A145U C150A C169G | 0.00826 |

# per-item lookup of reverse-splicing fitness; items listed below
1. C82U A120U C150U U176G
2. A111G A120G A145C U176A
3. A111U A120U A145U C169G

[0.00728, 0.0723, 0.0519]
